Values compiled from paper PMC6152231.

test system: BV2 microglial cells; test: cytotoxicity, MTT assay; format: cell-based, mouse; conditions: 80.0 μM, 24 h, BV2 microglial cells, n = 3; in % (unit assumed)
Kindly supply the reported Cell Viability values for the records listed here.

Report Cell Viability for C[C@@H]1CC[C@]2(C(=O)O[C@@H]3O[C@H](CO)[C@@H](O)[C@H](O)[C@H]3O)CC[C@]3(C)C(=CCC4[C@@]5(C)CC[C@H](OS(=O)(=O)[O-])[C@](C)(CO)C5CC[C@]43C)[C@@H]2[C@]1(C)O.[Na+] (some centres unmarked) [Compound 6, ilexoside XXXV] please.
103.22 ± 1.89

Follow-up entry: CCCCOC(=O)C1OC(OC2CCC3(C)C(CCC4(C)C3CC=C3C5C(C(=O)OC6OC(CO)C(O)C(O)C6O)(CCC(C)C5(C)O)CCC34C)C2(C)C)C(O)C(OS(=O)(=O)O)C1O (centres unmarked)
98.26 ± 1.88

Follow-up entry: C[C@H]1CC[C@]2(C(=O)O[C@@H]3O[C@H](CO)[C@@H](O)[C@H](O)[C@H]3O)CC[C@]3(C)C(=CCC4[C@@]5(C)CC[C@H](O[C@@H]6OC[C@H](O)[C@H](OS(=O)(=O)O)[C@H]6O)C(C)(C)C5CC[C@]43C)C2[C@]1(C)O (some centres unmarked)
99.33 ± 1.30

Follow-up entry: C[C@@H]1C[C@H]2[C@@H]3CCC4=CC(=O)C=C[C@]4(C)[C@@]3(F)[C@@H](O)C[C@]2(C)[C@@]1(O)C(=O)CO [Dexamethasone, reference compound]
99.78 ± 1.63

Follow-up entry: CCCCOC(=O)C1OC(OC2CCC3(C)C(CCC4(C)C3CC=C3C5C(C(=O)OC6OC(CO)C(O)C(O)C6O)(CCC(C)C5(C)O)CCC34C)C2(C)C)C(O)C(O)C1O (centres unmarked)
99.70 ± 1.36

Follow-up entry: C[C@H]1CC[C@]2(C(=O)O[C@@H]3O[C@H](CO)[C@@H](O)[C@H](O)[C@H]3O)CC[C@]3(C)C(=CCC4[C@@]5(C)CC[C@H](O[C@@H]6OC[C@@H](O)[C@H](O)[C@H]6OS(=O)(=O)O)C(C)(C)C5CC[C@]43C)C2[C@]1(C)O (some centres unmarked)
99.13 ± 1.28

Follow-up entry: C=C1CC[C@]2(C(=O)O[C@@H]3O[C@H](CO)[C@@H](O)[C@H](O)[C@H]3O[C@@H]3O[C@@H](C)[C@H](O)[C@@H](O)[C@H]3O)CC[C@]3(C)C(=CC[C@@H]4[C@@]5(C)CC[C@H](O[C@@H]6OC[C@H](O)[C@H](O[C@@H]7O[C@H](CO)[C@@H](O)[C@H](O)[C@H]7O[C@@H]7O[C@H](CO)[C@@H](O)[C@H](O)[C@H]7O)[C@H]6O[C@@H]6O[C@@H](C)[C@H](O)[C@@H](O)[C@H]6O)C(C)(C)[C@@H]5CC[C@]43C)[C@@H]2[C@]1(C)O [Compound 7, ilekudinoside F]
101.68 ± 1.38

Follow-up entry: C[C@@H]1CC[C@]2(C(=O)O[C@@H]3O[C@H](CO)[C@@H](O)[C@H](O)[C@H]3O)CC[C@]3(C)C(=CCC4[C@@]5(C)CC[C@H](O[C@@H]6O[C@H](CO)[C@@H](O)[C@H](O)[C@H]6O[C@@H]6O[C@H](CO)[C@@H](O[C@@H]7O[C@H](CO)[C@@H](O)[C@H](O)[C@H]7O)[C@H](O)[C@H]6O)C(C)(C)C5CC[C@]43C)[C@@H]2[C@]1(C)O (some centres unmarked) [Compound 3, hylonoside II]
88.50 ± 1.32
